Source: ChEMBL document CHEMBL4699491

- experimental protocol: Clearance in beagle dog at 0.2 mg/kg, iv by LC-MS/MS analysis
- Format: ADME, organism-based, Canis lupus familiaris
- condition label: in vivo
experimental endpoint: clearance

Tell me clearance reported for C[C@@H]1OCC2(CCN(c3cnc(Sc4ccnc(N)c4Cl)c(N)n3)CC2)[C@@H]1N [BATOPROTAFIB]
4 mL/min/kg

----------
- experimental protocol: physchem
- condition label: aqueous, pH 6.8
- Description: Aqueous solubility of the compound at pH 6.8
Rule: solubility of 400 µM or more gives 1; anything lower gives 0.

See these solved cases before continuing.
INSERT INTO assay_data (smi, qualitative_label) VALUES
  ('CC1(CN)CCN(c2cnc(Sc3ccnc(N)c3Cl)c(N)n2)CC1', 1),
  ('CC1(N)CCN(c2cnc(-c3cccc(Cl)c3Cl)c(N)n2)CC1', 0),
  ('Nc1nc(N2CCC3(CCC[C@H]3N)CC2)cnc1Sc1ccnc(N)c1Cl', 1),
  ('C[C@@H]1OCC2(CCN(c3cnc(Sc4ccnc(N)c4Cl)c(N)n3)CC2)[C@@H]1N', 1);

Check the entry `CC1(N)CCN(c2cnc(Sc3cccnc3C(F)(F)F)c(N)n2)CC1` : does solubility equal or exceed 400 µM?
0

Answer whether solubility of `Nc1nc(N2CCC3(CC2)COC[C@H]3N)cnc1Sc1ccnc(N)c1Cl` is greater than or equal to 400 µM.
1

Is the recorded value of solubility equal to or greater than 400 µM for this compound? `CC1(CN)CCN(c2cnc(Sc3cccc(Cl)c3Cl)c(N)n2)CC1`
0

Is the recorded value of solubility equal to or greater than 400 µM for this compound? `CC1(N)CCN(c2cnc(Sc3cccc(Cl)c3Cl)c(N)n2)CC1`
0

Quick check, solubility >= 400 µM? `C[C@H]1OCC2(CCN(c3cnc(Sc4ccnc(N)c4Cl)c(N)n3)CC2)[C@@H]1N`
0

----------
- target or system: Serine/threonine-protein kinase B-raf (Homo sapiens)
- Sequence (P15056 whole entry): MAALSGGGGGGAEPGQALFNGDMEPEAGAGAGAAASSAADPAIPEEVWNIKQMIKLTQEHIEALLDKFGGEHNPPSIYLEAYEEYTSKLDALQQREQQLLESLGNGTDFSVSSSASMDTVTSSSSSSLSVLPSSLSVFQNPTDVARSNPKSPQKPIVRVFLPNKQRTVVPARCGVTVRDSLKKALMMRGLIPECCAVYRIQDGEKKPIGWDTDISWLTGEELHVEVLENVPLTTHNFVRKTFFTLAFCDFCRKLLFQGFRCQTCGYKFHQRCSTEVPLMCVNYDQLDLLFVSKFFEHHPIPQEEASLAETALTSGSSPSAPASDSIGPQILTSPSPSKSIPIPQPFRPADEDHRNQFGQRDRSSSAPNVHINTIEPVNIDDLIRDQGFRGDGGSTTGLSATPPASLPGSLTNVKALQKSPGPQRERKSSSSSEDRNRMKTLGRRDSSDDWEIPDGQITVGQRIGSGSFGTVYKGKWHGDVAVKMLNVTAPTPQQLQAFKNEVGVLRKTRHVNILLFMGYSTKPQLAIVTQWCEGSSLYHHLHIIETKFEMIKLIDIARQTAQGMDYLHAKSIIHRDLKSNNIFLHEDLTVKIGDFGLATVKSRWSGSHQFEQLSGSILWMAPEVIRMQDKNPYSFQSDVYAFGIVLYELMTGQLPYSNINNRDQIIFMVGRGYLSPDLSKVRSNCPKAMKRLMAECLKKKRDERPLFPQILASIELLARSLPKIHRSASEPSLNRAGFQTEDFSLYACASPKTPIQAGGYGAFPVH
- experimental protocol: Inhibition of RAF in human A-375 cells assessed as reduction in p-ERK levels
experimental endpoint: IC50 (nM)
Express your answer in nM, writing the number without its unit.

Consider the compound Cc1ccc(NC(=O)c2ccnc(C(F)(F)F)c2)cc1-c1cc(OCCO)nc(N2CCOCC2)c1 [NAPORAFENIB] tested on Serine/threonine-protein kinase B-raf (Homo sapiens); state its IC50.
78

----------
- experimental protocol: Tmax in cynomolgus monkey at 1 mg/kg, po by LC-MS/MS analysis
- Type: ADME, organism-based, Macaca fascicularis
- condition label: in vivo
experimental endpoint: Tmax
Units required after the number.

Identify measured Tmax associated with `C[C@@H]1OCC2(CCN(c3cnc(Sc4ccnc(N)c4Cl)c(N)n3)CC2)[C@@H]1N`
2 h

----------
pIC50 by entry:
- target or system: Tyrosine-protein phosphatase non-receptor type 11 (Homo sapiens, UniProt Q06124)
- Sequence (Q06124 whole entry, the tested form may be a part): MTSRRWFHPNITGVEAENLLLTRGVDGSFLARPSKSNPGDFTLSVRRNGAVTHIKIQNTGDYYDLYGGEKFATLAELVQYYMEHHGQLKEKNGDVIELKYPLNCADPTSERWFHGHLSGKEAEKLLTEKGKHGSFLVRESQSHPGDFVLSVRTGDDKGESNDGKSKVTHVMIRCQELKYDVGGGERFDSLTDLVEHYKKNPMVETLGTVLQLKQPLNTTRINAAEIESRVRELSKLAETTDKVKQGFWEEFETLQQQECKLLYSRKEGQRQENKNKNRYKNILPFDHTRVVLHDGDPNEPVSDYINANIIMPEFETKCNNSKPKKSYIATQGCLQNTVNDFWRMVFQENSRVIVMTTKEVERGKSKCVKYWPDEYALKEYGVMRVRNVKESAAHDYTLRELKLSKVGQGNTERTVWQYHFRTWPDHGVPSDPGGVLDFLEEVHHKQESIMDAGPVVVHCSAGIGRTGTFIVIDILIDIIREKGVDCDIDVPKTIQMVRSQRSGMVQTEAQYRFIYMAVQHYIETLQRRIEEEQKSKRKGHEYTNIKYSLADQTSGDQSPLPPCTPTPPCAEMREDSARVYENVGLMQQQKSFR
- experimental protocol: Allosteric inhibition of 6x-histidine tagged human SHP2 (Met1-L525 residues) expressed in Escherichia coli BL21 Star (DE3) using IRS1_pY1172(dPEG8)[…] incubated for 30 mins by fluorescence based DIFMUP assay
To interpret pIC50, take it as minus log10 of a concentration measured in moles per litre.

INSERT INTO results (smi, experimental_endpoint, assay_result) VALUES
  ('CC1(CN)CCN(c2cnc(Sc3cccc(Cl)c3Cl)c(N)n2)CC1', 'pIC50', 7.77),
  ('CC1(N)CCN(c2cnc(Sc3cccnc3C(F)(F)F)c(N)n2)CC1', 'pIC50', 7.17);

Next up:
Report the value of pIC50 obtained on Tyrosine-protein phosphatase non-receptor type 11 (Homo sapiens, UniProt Q06124) for `CC1(N)CCN(c2cnc(Cc3cccc(Cl)c3Cl)c(N)n2)CC1` .
5.00

----------
- experimental protocol: Volume of distribution at steady state in cynomolgus monkey at 0.3 mg/kg, iv by LC-MS/MS analysis
- Type: ADME, organism-based, Macaca fascicularis
- condition label: in vivo, read-out: Vdss
experimental endpoint: Vd (L/kg)
Dear colleague, please return just the value in L/kg, with no unit written.

Supply reported Vd belonging to this compound: `C[C@@H]1OCC2(CCN(c3cnc(Sc4ccnc(N)c4Cl)c(N)n3)CC2)[C@@H]1N`
4

----------
- experimental protocol: Protein binding in C57BL/6 mouse plasma
- Format: ADME, cell-free
- condition label: read-out: PPB (converted)
experimental endpoint: fraction unbound
Answer with a bare number; do not write a unit.

Look up and report measured fraction unbound for this entry: C[C@@H]1OCC2(CCN(c3cnc(Sc4ccnc(N)c4Cl)c(N)n3)CC2)[C@@H]1N [BATOPROTAFIB]
0.24

----------
- experimental protocol: Protein binding in Sprague-Dawley rat plasma
- Assay type: ADME, cell-free
- condition label: read-out: PPB (converted)
experimental endpoint: fraction unbound

Using known records, supply fraction unbound for C[C@@H]1OCC2(CCN(c3cnc(Sc4ccnc(N)c4Cl)c(N)n3)CC2)[C@@H]1N [BATOPROTAFIB]
0.19

----------
- System: KYSE-520 cell line
- experimental protocol: Antiproliferative activity against human KYSE-520 cells
- Assay type: functional, cell-based
- condition label: kyse-520
experimental endpoint: IC50

INSERT INTO results (smi, assay_result) VALUES
  ('C[C@H]1OCC2(CCN(c3cnc(Sc4ccnc(N)c4Cl)c(N)n3)CC2)[C@@H]1N', '0.74 µM'),
  ('C[C@@H]1OCC2(CCN(c3cnc(Sc4ccnc(N)c4Cl)c(N)n3)CC2)[C@@H]1N', '0.1 µM'),
  ('CC1(CN)CCN(c2cnc(Sc3cccc(Cl)c3Cl)c(N)n2)CC1', '2.67 µM'),
  ('CC1(N)CCN(c2cnc(Sc3ccccc3Cl)c(N)n2)CC1', '8.14 µM');

Specify reported IC50 for the compound shown: `CC1(N)CCN(c2cnc(Sc3cccc(Cl)c3Cl)c(N)n2)CC1`
4.07 µM

----------
- experimental protocol: Oral bioavailability in C57BL/6 mouse at 5 mg/kg by LC-MS/MS analysis
- Format: ADME, organism-based
- condition label: in vivo
experimental endpoint: bioavailability (%)
Write the value in % as a bare number.

Assign bioavailability to the following record: C[C@@H]1OCC2(CCN(c3cnc(Sc4ccnc(N)c4Cl)c(N)n3)CC2)[C@@H]1N [BATOPROTAFIB]
78

----------
- experimental protocol: Terminal half life in cynomolgus monkey at 0.3 mg/kg, iv by LC-MS/MS analysis
- Format: ADME, organism-based, Macaca fascicularis
- condition label: in vivo, read-out: beta t1/2 (converted)
experimental endpoint: half-life (h)
Please respond with the number in h and leave the unit unwritten.

Read off the recorded half-life for `C[C@@H]1OCC2(CCN(c3cnc(Sc4ccnc(N)c4Cl)c(N)n3)CC2)[C@@H]1N`
9

----------
- experimental protocol: physchem
- condition label: octanol/water
- Description: Distribution coefficient, logD of the compound
experimental endpoint: logD
Could you keep your reply to the number by itself?

INSERT INTO measurements (compound, assay_result) VALUES
  ('Nc1nc(N2CCC3(CC2)COC[C@H]3N)cnc1Sc1ccnc(N)c1Cl', 0.2);

Respond only with logD recorded for `CC1(N)CCN(c2cnc(-c3cccc(Cl)c3Cl)c(N)n2)CC1`
0.92

Output measured logD for this item: `CC1(CN)CCN(c2cnc(Sc3cccc(Cl)c3Cl)c(N)n2)CC1`
2.5

Fill in reported logD for this entry: C[C@@H]1OCC2(CCN(c3cnc(Sc4ccnc(N)c4Cl)c(N)n3)CC2)[C@@H]1N [BATOPROTAFIB]
0.6

Provide measured logD value, entry: `CC1(N)CCN(c2cnc(Sc3cccnc3C(F)(F)F)c(N)n2)CC1`
-0.5

Fill in logD for record `Nc1nc(N2CCC3(CCC[C@H]3N)CC2)cnc1Sc1ccnc(N)c1Cl`
-0.6

Using the record for `CC1(CN)CCN(c2cnc(Sc3ccnc(N)c3Cl)c(N)n2)CC1` , state its measured logD.
-0.9

Please indicate logD recorded for `CC1(N)CCN(c2cnc(Sc3cccc(Cl)c3Cl)c(N)n2)CC1`
1.1

----------
Assay read-out pIC50; system under study: Voltage-gated inwardly rectifying potassium channel KCNH2 (Homo sapiens).
Sequence (Q12809 whole entry): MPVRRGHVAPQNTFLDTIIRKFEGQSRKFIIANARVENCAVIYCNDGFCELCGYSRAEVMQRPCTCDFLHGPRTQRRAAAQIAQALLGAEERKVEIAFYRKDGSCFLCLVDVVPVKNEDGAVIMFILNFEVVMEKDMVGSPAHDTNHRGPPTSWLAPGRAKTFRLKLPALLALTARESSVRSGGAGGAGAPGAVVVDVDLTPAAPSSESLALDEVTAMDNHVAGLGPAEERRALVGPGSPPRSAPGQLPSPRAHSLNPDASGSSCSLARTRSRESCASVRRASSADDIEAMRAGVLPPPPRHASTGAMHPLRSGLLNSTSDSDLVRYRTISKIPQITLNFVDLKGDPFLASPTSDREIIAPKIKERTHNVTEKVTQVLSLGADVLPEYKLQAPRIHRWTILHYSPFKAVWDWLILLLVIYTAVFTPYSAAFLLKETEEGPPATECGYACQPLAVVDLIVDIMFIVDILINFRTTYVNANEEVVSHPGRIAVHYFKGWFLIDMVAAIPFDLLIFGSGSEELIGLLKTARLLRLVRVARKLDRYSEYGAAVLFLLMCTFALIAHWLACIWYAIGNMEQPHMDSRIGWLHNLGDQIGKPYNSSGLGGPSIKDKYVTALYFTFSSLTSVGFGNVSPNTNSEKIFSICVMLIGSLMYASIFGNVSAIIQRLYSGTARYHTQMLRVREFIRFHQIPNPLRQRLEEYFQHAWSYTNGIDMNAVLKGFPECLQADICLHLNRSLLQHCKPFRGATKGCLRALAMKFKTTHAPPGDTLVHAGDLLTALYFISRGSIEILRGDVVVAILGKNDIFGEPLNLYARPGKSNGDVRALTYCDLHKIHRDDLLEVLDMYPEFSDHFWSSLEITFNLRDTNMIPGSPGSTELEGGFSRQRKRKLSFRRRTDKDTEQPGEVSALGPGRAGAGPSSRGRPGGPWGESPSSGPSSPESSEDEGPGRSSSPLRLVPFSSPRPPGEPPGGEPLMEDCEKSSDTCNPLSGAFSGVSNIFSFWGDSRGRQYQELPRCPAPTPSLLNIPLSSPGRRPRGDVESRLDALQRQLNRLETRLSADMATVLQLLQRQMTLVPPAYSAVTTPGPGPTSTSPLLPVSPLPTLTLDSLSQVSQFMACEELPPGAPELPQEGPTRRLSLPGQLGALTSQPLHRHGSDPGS
// pIC50: -log10(molar conc.)

INSERT INTO measurements (smi, target_or_system, assay_result) VALUES
  ('CC1(N)CCN(c2cnc(Sc3cccnc3C(F)(F)F)c(N)n2)CC1', 'Voltage-gated inwardly rectifying potassium channel KCNH2 (Homo sapiens)', 4.76),
  ('CC1(N)CCN(c2cnc(Sc3cccc(Cl)c3Cl)c(N)n2)CC1', 'Voltage-gated inwardly rectifying potassium channel KCNH2 (Homo sapiens)', 5.55);

Now turn to the next compound.
Report pIC50 under test system Voltage-gated inwardly rectifying potassium channel KCNH2 (Homo sapiens) for `CC1(CN)CCN(c2cnc(Sc3cccc(Cl)c3Cl)c(N)n2)CC1` .
5.62

----------
- experimental protocol: Volume of distribution at steady state in beagle dog at 0.2 mg/kg, iv by LC-MS/MS analysis
- Assay type: ADME, organism-based, Canis lupus familiaris
- condition label: in vivo, read-out: Vdss
experimental endpoint: Vd (L/kg)
Lab book: enter the figure in L/kg, no units written.

Read off the recorded Vd for `C[C@@H]1OCC2(CCN(c3cnc(Sc4ccnc(N)c4Cl)c(N)n3)CC2)[C@@H]1N`
3
